Experiment: qHTS assay for small molecule agonists of the p53 signaling pathway (AID 651631); note: % is set by controls: 0 for no effect and ±100 for the full control effect; nearly all actives have a fitted effect of over 15% in size
Conditions: HCT-116 p53RE-bla reporter, beta-lactamase FRET ratio, 16 h; series mostly up to 73.3 µM
Inconclusive results are not listed. Calls of active or inactive are those of the source. Calls come from the whole dose curve.
// classify into active, inactive

Observe how each entry below is paired with its result.
{"MOLECULE": "O=C(O)/C=C\\C(=O)O", "CLASSIFICATION": "inactive"}
{"MOLECULE": "CCN(CC)C(=O)N[C@H]1C[C@@H]2c3cccc4[nH]cc(c34)C[C@H]2N(C)C1", "CLASSIFICATION": "inactive"}
{"MOLECULE": "O=C1OC(=O)c2c(Cl)c(Cl)c(Cl)c(Cl)c21", "CLASSIFICATION": "inactive"}
{"MOLECULE": "CCC1(CC)C(=O)NC(=O)N(C)C1=O", "CLASSIFICATION": "inactive"}
{"MOLECULE": "CN=C1CN(O)C(c2ccccc2)=c2cc(Cl)ccc2=N1", "CLASSIFICATION": "inactive"}

q: What was the test verdict on CN[C@@]1(c2ccccc2Cl)CCCCC1=O ?
a: inactive

q: Record request — test call for O=P(OC(CCl)CCl)(OC(CCl)CCl)OC(CCl)CCl
a: inactive

----------
Assay: qHTS assay to identify small molecule antagonists of the estrogen related receptor signaling pathway with the pleiotropic PPARgamma coactivator (PGC) from Tox21 10K library (AID 1224841); note: potency is the fitted concentration of half-maximal effect; actives are mostly falling curves and most rising ones were filed inactive; nearly all actives have a fitted effect of over 50% in size
Conditions: PGC/ERR reporter cell line, ONE-Glo luciferase, 18 h; series mostly up to 92.4 µM
Results filed as inconclusive are left out. Calls of active or inactive are those of the source. How the calls were made is not given here.
ASSAY READOUT: Potency

Worked cases, answers included:
{"SMILES REPR": "Cc1cc(C)c(C(=O)P(=O)(c2ccccc2)c2ccccc2)c(C)c1", "MEASUREMENT": "54.5 µM (active)"}
{"SMILES REPR": "Cc1ccc(N(SC(F)(Cl)Cl)S(=O)(=O)N(C)C)cc1", "MEASUREMENT": "24.3 µM (active)"}

Now let's try a different one.
q: Record request: Potency value, item O=C(c1ccccc1)C(Cl)Cl
a: 68.6 µM (active)

----------
Experiment: qHTS assay for identifying genotoxic compounds that show differential cytotoxicity against isogenic chicken DT40 cell lines with known DNA damage response pathways - Rad54/Ku70 mutant cell line (AID 743015); note: nearly all actives have a fitted effect of over 60% in size
Conditions: DT40 Rad54/Ku70 mutant viability, CellTiter-Glo, 40 h; series mostly up to 66.8 µM
Records with an inconclusive call do not appear. The source made the active and inactive calls. The call rests on the fitted dose curve; in most records, active means well fitted cell-killing curve with a large enough effect in the repeat runs; inconclusive means weak or mixed curves; inactive means no such curve, though single readings can be large or run the other way.
# output must be one of yes (active), no (inactive)

{"MOLECULE": "C/C=C(\\CC)C(=O)NC(N)=O", "CLASSIFICATION": "no"}
{"MOLECULE": "Cc1nnc2n1-c1ccc(Cl)cc1C(c1ccccc1Cl)=NC2", "CLASSIFICATION": "no"}
{"MOLECULE": "CC(=O)OC1CN2CCC1CC2 (centres undefined)", "CLASSIFICATION": "no"}
{"MOLECULE": "CCC1(c2ccccc2)C(=O)NC(=O)N(C)C1=O (centres undefined)", "CLASSIFICATION": "no"}
{"MOLECULE": "Oc1cc[c]([Hg][Cl])cc1", "CLASSIFICATION": "yes"}

q: Call for entry CCC1(CC)C(=O)NC(=O)N(C)C1=O :
a: no

q: Could you please tell me the result logged for [S]=[Sb](=[S])[S][Sb](=[S])=[S] in this assay?
a: no

q: Just curious, what result did C[C@]12CC[C@@H]3c4ccc(OC(=O)N(CCCl)CCCl)cc4CC[C@H]3[C@@H]1CC[C@@H]2OP(=O)(O)O get here?
a: no

q: Kindly provide the recorded test outcome for the following molecule: CCCN1CCC[C@H](c2cccc(O)c2)C1
a: no

q: Could you check what this test reported for CCC(=O)O[C@@](Cc1ccccc1)(c1ccccc1)[C@@H](C)CN(C)C ?
a: no

q: Per the assay record, what outcome was assigned to O=C(O)/C=C/C(=O)O ?
a: no

q: For CN1[C@H]2CC[C@@H]1[C@@H](C(=O)O)[C@@H](OC(=O)c1ccccc1)C2 , what call appears in the results of this test?
a: no

q: Hello, I am checking results. What call was entered for CCC(C)(S(=O)(=O)CC)S(=O)(=O)CC ?
a: no

----------
Experiment: qHTS RealTime-Glo MT Cell Viability Assay in HEK293 cells - 8 hour (AID 1224887); note: nearly all actives have a fitted effect of over 50% in size
Conditions: RealTime-Glo luminescence; series mostly up to 76.8 µM
Results filed as inconclusive are left out. The source made the active and inactive calls. Calls follow the shape of the dose curve; as a rule, active = well fitted cell-killing curve with a large enough effect in the repeat runs; inconclusive = weak or mixed curves, or effect the other way; inactive = flat fitted curve, though single readings scatter.
// one of active, inactive, no free text

{"COMPOUND": "COc1cc(OC)c(OC)cc1C=O", "CLASSIFICATION": "inactive"}
{"COMPOUND": "Cc1cc(C)c(C(=O)P(=O)(c2ccccc2)c2ccccc2)c(C)c1", "CLASSIFICATION": "active"}
{"COMPOUND": "CN1CSC(=S)N(C)C1", "CLASSIFICATION": "inactive"}

q: Record request — test call for Cc1nnc2n1-c1sc(CCc3ccc(CC(C)C)cc3)cc1C(c1ccccc1Cl)=NC2C (stereo not drawn)
a: active

----------
Assay: qHTS assay for small molecule agonists of the p53 signaling pathway - cell viability (AID 651633); note: nearly all actives have a fitted effect of over 30% in size
Conditions: p53RE-bla HCT-116 viability, ATP luminescence, 16 h; series mostly up to 83.3 µM
Records with an inconclusive call do not appear. Calls of active or inactive are those of the source. Calls come from the whole dose curve.
The categories you may choose from are Y (active), N (inactive)

{"COMPOUND": "C[C@H]1CC[C@]2(NC1)O[C@H]1C[C@H]3[C@@H]4CC[C@H]5C[C@@H](O[C@@H]6O[C@H](CO)[C@H](O[C@@H]7O[C@H](CO)[C@@H](O)[C@H](O[C@@H]8OC[C@@H](O)[C@H](O)[C@H]8O)[C@H]7O[C@@H]7O[C@H](CO)[C@@H](O)[C@H](O)[C@H]7O)[C@H](O)[C@H]6O)CC[C@]5(C)[C@H]4CC[C@]3(C)[C@H]1[C@@H]2C", "CLASSIFICATION": "Y"}
{"COMPOUND": "COc1cc(OC)c(OC)cc1C=O", "CLASSIFICATION": "N"}
{"COMPOUND": "CC(Cc1ccccc1)NC=O (stereo not given)", "CLASSIFICATION": "N"}

q: Dear colleague, could you share the recorded outcome for O=S(=O)(O)c1cc(O)ccc1O when you have a moment?
a: N

q: Outcome? CCCCCc1cc(O)c2c(c1)OC(C)(C)[C@@H]1CCC(C)=C[C@@H]21
a: Y

----------
Biological target: Acetylcholinesterase (Homo sapiens) (UniProt P22303)
Sequence (P22303 whole entry, looked up): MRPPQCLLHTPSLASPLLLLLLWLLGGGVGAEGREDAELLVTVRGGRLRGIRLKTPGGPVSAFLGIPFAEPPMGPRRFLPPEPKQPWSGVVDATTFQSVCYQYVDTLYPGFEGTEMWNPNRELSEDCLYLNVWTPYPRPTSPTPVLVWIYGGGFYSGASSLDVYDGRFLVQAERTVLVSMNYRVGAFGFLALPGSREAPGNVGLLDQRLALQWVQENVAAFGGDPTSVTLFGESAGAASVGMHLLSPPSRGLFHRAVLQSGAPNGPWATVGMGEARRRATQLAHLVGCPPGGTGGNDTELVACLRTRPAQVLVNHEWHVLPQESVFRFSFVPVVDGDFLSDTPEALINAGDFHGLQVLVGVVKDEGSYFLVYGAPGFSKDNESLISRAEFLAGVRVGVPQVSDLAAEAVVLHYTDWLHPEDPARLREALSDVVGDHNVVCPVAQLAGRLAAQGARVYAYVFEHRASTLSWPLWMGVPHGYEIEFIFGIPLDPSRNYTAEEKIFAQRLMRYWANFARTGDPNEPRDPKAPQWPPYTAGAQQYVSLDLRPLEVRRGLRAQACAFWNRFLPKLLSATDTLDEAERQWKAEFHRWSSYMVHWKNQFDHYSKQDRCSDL
Assay: Acetylcholinesterase (AChE) small molecule antagonists: enzyme-based qHTS assay with human liver microsomes (AID 1347399); note: % is set by controls: 0 for no effect and ±100 for the full control effect; nearly all actives have a fitted effect of over 60% in size
Settings: qHTS inhibition; series mostly up to 115 µM
Calls of active or inactive are those of the source. Calls follow the shape of the full dose curve.
Assign a class; possible classes are class 1 for active, class 0 for inactive

{"COMPOUND": "CCOc1cccc(-n2cc(C(=O)N3CCN(c4cc(C(=O)O)c5ccccc5c4)CC3)nc2-c2ccc(C)cc2)c1", "CLASSIFICATION": "class 0"}
{"COMPOUND": "Cc1cc2nc3c(=O)[nH]c(=O)nc-3n(C[C@H](O)[C@H](O)[C@H](O)CO)c2cc1C", "CLASSIFICATION": "class 0"}
{"COMPOUND": "CCCCCCCC(=O)O", "CLASSIFICATION": "class 0"}
{"COMPOUND": "O=C(Nc1ccc2c(c1)Cc1ccccc1-2)C(F)(F)F", "CLASSIFICATION": "class 0"}
{"COMPOUND": "O=C(NS(=O)(=O)/C=C/c1ccccc1)c1ccc(F)cc1Cl", "CLASSIFICATION": "class 0"}
{"COMPOUND": "O=[N+]([O-])c1cccc(Cl)c1Cl", "CLASSIFICATION": "class 0"}

q: Kindly provide the recorded test outcome for the following compound: Nc1ccc2c3c(cccc13)-c1ccccc1-2
a: class 0

q: Test call for this compound, please: CC1COc2ccccc2N1C(=O)C(Cl)Cl (centres undefined)
a: class 0

q: Outcome? CCC(=O)Nc1ccc(O)cc1
a: class 0

q: For this compound, state the assay outcome: Cc1c(Cl)cccc1[N+](=O)[O-]
a: class 0

q: So what was the verdict on CCOC(=O)C(C)Oc1ccc(Oc2cnc3cc(Cl)ccc3n2)cc1 (centres undefined) in this test?
a: class 0

q: What is the recorded call for this compound in the test? C[C@]12CC[C@H]3[C@@H](CCC4=CC(=O)CC[C@@]43C)[C@@H]1CC[C@@H]2C(=O)CO
a: class 0

----------
Biological target: Acetylcholinesterase (Homo sapiens)
Experiment: Acetylcholinesterase (AChE) small molecule antagonists: enzyme-based qHTS assay with human liver microsomes (AID 1347399); note: % is set by controls: 0 for no effect and ±100 for the full control effect; nearly all actives have a fitted effect of over 60% in size
Conditions: series mostly up to 115 µM
Source text: National Center for Advancing Translational Sciences [NCATS] Division of Preclinical Innovation [DPI] U.S. Environmental Protection Agency [EPA] National Institutes of Environmental Health Sciences [NIEHS] National Toxicology Program [NTP] U.S. Food and Drug Administration [FDA] Acetylcholinesterase (AChE) is the primary cholinesterase in the body that hydrolyzes a key neurotransmitter, acetylcholine. Inhibition of AChE activity can lead to neurotoxicity. […]
Active and inactive are the calls of the source. Calls follow the shape of the full dose curve.
ASSAY READOUT: activity change, negative = inhibition

q: Could you tell me which activity change, negative = inhibition is on file for CC(C)(C)CC(C)(C)c1ccc(Nc2ccc(C(C)(C)CC(C)(C)C)cc2)cc1 ?
a: 0.323% [at 10.5 µM] (inactive)

q: // query activity change, negative = inhibition value for entry CN(C)c1ccc(/C=C/c2ccc([N+](=O)[O-])cc2)cc1
a: 1.54% [at 10.5 µM] (inactive)

q: Which activity change, negative = inhibition value belongs to c1ccc2sc(SSc3nc4ccccc4s3)nc2c1 ?
a: -1.01% [at 23.6 µM] (inactive)

q: Entry C=C(C)C(=O)OCCCCCCCCCCCCCCCCCC has what activity change, negative = inhibition?
a: 0.563% [at 23.6 µM] (inactive)

q: Which activity change, negative = inhibition value is on record for CCC(=O)CC(C)CC (configuration not stated) ?
a: 0% [at 0.435 µM] (inactive)

q: Consider the compound shown here: O=S(O)O What is its recorded activity change, negative = inhibition?
a: -0.486% [at 23.6 µM] (inactive)

q: If you can, please state the reported activity change, negative = inhibition value of C=CCCCCCCCCCCCCCCCC .
a: -0.261% [at 10.5 µM] (inactive)

q: Which activity change, negative = inhibition value belongs to O=c1oc2c(O)c(O)cc3c(=O)oc4c(O)c(O)cc1c4c23 ?
a: -1.34% [at 23.6 µM] (inactive)

q: Look at this compound and give its reported activity change, negative = inhibition. O=C(Nc1cccc(C2=NCCN2)c1)Nc1cccc(C2=NCCN2)c1
a: -3.93% [at 23.6 µM] (inactive)
